Molecular target: T1, human programmed cell death protein 1 (hPD-1) C93S (aa 24-167) (Homo sapiens, UniProt Q15116, C93S)
T1 construct: made as a fusion with a TEV site and human Fc; the Fc was cut off with TEV protease; source: Expi293F, purified (Protein A, TEV cleavage of Fc, SEC; monomer fractions); not shown: Fc (human), C-terminal, cleaved
T1 sequence (Q15116 24-167 C93S): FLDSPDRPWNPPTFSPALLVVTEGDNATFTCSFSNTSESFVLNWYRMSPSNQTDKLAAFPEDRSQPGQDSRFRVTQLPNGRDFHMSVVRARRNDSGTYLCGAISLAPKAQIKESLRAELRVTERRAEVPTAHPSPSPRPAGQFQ
Assay: SPR; Carterra LSA; Fab from the ammonium sulfate precipitate of the culture supernatant immobilised on a NiHC200M chip; hPD-1 (1-1024 nM) or mPD-1-Fc (4-1024 nM) as analyte, fourfold dilution series, no regeneration; HBS-EP pH 7.4, 25 °C; medians over the spots of a construct, KD = koff/kon
Details: one partner purified

| binder | qual | koff / s⁻¹ |
| --- | --- | --- |
| toripalimab Fab H.T58Y (Fab, V domains shown, heavy chain of Sm3 with this change; numbers count from the chain's first residue; as the light chain of Sm3; source: Brevibacillus, culture supernatant (ammonium sulfate precipitate); not shown: 6xHis, C-terminal, kept; 6xHN, C-terminal, kept) VH: QGQLVQSGAEVKKPGASVKVSCKASGYTFTDYEMHWVRQAPIHGLEWIGVIESETGGYAYNQKFKGRVTITADKSTSTAYMELSSLRSEDTAVYYCAREGITTVATTYYWYFDVWGQGTTVTVSS VL: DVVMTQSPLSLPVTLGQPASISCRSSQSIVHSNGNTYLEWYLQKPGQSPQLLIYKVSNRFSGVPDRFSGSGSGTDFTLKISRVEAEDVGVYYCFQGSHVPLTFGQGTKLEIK | = | 1.54e-05 |
| toripalimab Fab L.S28Y (Fab, V domains shown, as the heavy chain of Sm3; light chain of Sm3 with this change; numbers count from the chain's first residue; source: Brevibacillus, culture supernatant (ammonium sulfate precipitate); not shown: 6xHis, C-terminal, kept; 6xHN, C-terminal, kept) VH: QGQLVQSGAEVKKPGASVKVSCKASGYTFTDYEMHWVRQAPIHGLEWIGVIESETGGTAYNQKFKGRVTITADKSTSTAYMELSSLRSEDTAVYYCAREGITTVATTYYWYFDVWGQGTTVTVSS VL: DVVMTQSPLSLPVTLGQPASISCRSSQYIVHSNGNTYLEWYLQKPGQSPQLLIYKVSNRFSGVPDRFSGSGSGTDFTLKISRVEAEDVGVYYCFQGSHVPLTFGQGTKLEIK | < | 1e-05 |
| toripalimab Fab L.P100S (Fab, V domains shown, as the heavy chain of Sm3; light chain of Sm3 with this change; numbers count from the chain's first residue; source: Brevibacillus, culture supernatant (ammonium sulfate precipitate); not shown: 6xHis, C-terminal, kept; 6xHN, C-terminal, kept) VH: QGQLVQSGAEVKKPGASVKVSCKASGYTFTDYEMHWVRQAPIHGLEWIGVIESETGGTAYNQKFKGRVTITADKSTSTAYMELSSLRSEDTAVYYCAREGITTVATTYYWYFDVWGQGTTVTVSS VL: DVVMTQSPLSLPVTLGQPASISCRSSQSIVHSNGNTYLEWYLQKPGQSPQLLIYKVSNRFSGVPDRFSGSGSGTDFTLKISRVEAEDVGVYYCFQGSHVSLTFGQGTKLEIK | < | 1e-05 |
| toripalimab Fab H.V50A (Fab, V domains shown, heavy chain of Sm3 with this change; numbers count from the chain's first residue; as the light chain of Sm3; source: Brevibacillus, culture supernatant (ammonium sulfate precipitate); not shown: 6xHis, C-terminal, kept; 6xHN, C-terminal, kept) VH: QGQLVQSGAEVKKPGASVKVSCKASGYTFTDYEMHWVRQAPIHGLEWIGAIESETGGTAYNQKFKGRVTITADKSTSTAYMELSSLRSEDTAVYYCAREGITTVATTYYWYFDVWGQGTTVTVSS VL: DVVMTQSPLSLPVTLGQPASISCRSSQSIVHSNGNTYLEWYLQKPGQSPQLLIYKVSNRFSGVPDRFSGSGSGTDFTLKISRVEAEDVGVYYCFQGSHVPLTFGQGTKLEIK | = | 2.65e-05 |
| toripalimab Fab L.S57Y (Fab, V domains shown, as the heavy chain of Sm3; light chain of Sm3 with this change; numbers count from the chain's first residue; source: Brevibacillus, culture supernatant (ammonium sulfate precipitate); not shown: 6xHis, C-terminal, kept; 6xHN, C-terminal, kept) VH: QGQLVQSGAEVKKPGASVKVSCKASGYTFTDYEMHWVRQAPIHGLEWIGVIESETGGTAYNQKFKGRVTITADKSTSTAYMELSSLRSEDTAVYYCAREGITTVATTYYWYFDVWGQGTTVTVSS VL: DVVMTQSPLSLPVTLGQPASISCRSSQSIVHSNGNTYLEWYLQKPGQSPQLLIYKVYNRFSGVPDRFSGSGSGTDFTLKISRVEAEDVGVYYCFQGSHVPLTFGQGTKLEIK | < | 1e-05 |
| toripalimab Fab L.S97A (Fab, V domains shown, as the heavy chain of Sm3; light chain of Sm3 with this change; numbers count from the chain's first residue; source: Brevibacillus, culture supernatant (ammonium sulfate precipitate); not shown: 6xHis, C-terminal, kept; 6xHN, C-terminal, kept) VH: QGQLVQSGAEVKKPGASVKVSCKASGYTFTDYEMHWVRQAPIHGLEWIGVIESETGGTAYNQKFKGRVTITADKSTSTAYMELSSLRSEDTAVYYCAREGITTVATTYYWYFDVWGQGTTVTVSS VL: DVVMTQSPLSLPVTLGQPASISCRSSQSIVHSNGNTYLEWYLQKPGQSPQLLIYKVSNRFSGVPDRFSGSGSGTDFTLKISRVEAEDVGVYYCFQGAHVPLTFGQGTKLEIK | = | 4.49e-05 |

This collection of values is drawn from paper PMC10663500.
